targetOrSystem: UniProt:P10632
assayContext: read-out: CYP2C8 IC50; 30 min; + NADPH
readoutKind: IC50 (µM)
Report the value in µM with no unit label.

IC50 reading for Cc1ccc(C)c(OCCCC(C)(C)C(=O)O[C@@H]2O[C@H](C(=O)O)[C@@H](O)[C@H](O)[C@H]2O)c1 [gemfibrozilglucuronide] : 5.84

====

targetOrSystem: CYP2C8 (Homo sapiens, UniProt P10632)
Sequence (P10632 whole entry): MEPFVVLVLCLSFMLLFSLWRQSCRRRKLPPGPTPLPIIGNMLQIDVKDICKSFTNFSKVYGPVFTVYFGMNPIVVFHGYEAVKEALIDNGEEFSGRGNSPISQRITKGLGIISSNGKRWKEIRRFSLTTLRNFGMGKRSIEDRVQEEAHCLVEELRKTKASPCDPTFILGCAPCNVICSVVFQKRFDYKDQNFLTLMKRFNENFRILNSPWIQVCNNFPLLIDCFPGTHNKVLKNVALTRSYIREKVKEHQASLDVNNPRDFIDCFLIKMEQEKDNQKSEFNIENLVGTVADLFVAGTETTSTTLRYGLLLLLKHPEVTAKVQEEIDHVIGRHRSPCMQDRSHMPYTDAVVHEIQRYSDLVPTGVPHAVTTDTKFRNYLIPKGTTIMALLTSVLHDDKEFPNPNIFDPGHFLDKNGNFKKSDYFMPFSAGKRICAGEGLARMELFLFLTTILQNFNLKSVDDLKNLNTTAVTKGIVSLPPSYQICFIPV
assayContext: read-out: CYP2C8 IC50; 30 min; - NADPH
readoutKind: IC50 (µM)
# unit: µM | format: bare number

Lab book: IC50 of Cc1ccc(C)c(OCCCC(C)(C)C(=O)O[C@@H]2O[C@H](C(=O)O)[C@@H](O)[C@H](O)[C@H]2O)c1 [gemfibrozilglucuronide] noted as 30.3
